Listing of recorded BCMA Binding (relative to SEQ ID: 48) by entry.
Target: T1, phycoerythrin (PE)-conjugated BCMA (Recombinant Human TNFRSF17 protein, Fc/His-tagged, R-PE labeled); Creative … (human, UniProt Q02223 1-54, R-PE labeled)
T1 construct: Bought reagent; also called BCMA-PE; not shown: Fc/His tag of the bought reagent
T1 sequence: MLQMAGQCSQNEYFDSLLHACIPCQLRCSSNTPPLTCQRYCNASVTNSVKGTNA
Test: flow cytometry; CAR T cells stained with BCMA-PE, 3 days after electroporation

binder | value_measured
CAR comprising scFv-J5 (SEQ ID NO: 53) (other, CAR on mRNA-electroporated human CD8+ T cells; Only the scFv is identified; not shown: rest of the CAR (hinge, transmembrane, cytoplasmic domains) not specified for this construct) DIVLTQSPASLAVSLGERATISCRASESVSILGSHYLAWYQQKPGQPPKLLIYLASNLQTGVPARFSGSGSGTDFTLTISSLEAEDVAVYYCQQSRTIPRTFGQGTKLEIKGSTSGSGKPGSGEGSTKGQIQLVQSGAEVKKPGESVKISCKASGYTFTDYSINWVRQAPGQGLKWMGWINTETREPAYAYDFRGRFAFSLDTSASTAYLQISSLKAEDTAVYFCALDYSYAMDYWGQGTLVTVSS | 103 relative to SEQ ID: 48 = 100

Note: attention shifts to another entry.
Quick check: BCMA Binding (relative to SEQ ID: 48) of CAR comprising scFv-J2 (SEQ ID NO: 50) (other, CAR on mRNA-electroporated human CD8+ T cells; Only the scFv is identified; not shown: rest of the CAR (hinge, transmembrane, cytoplasmic domains) not specified for this construct) DIVLTQSPASLAVSLGERATISCRASESVSILGSHLLHWYQQKPGQPPKLLIYLASNLQTGVPARFSGSGSGTDFTLTISSLEAEDVAVYYCLQSRTIPRTFGQGTKLEIKGSTSGSGKPGSGEGSTKGQIQLVQSGAEVKKPGASVKISCKASGYTFTDYSINWVRQAPGQGLEWMGWINTETREPAYAYDFRGRVTMTRDTSASTAYLQISSLKAEDTAVYFCALDYSYAMDYWGQGSLVTVSS ?
51 relative to SEQ ID: 48 = 100
